# Test System: Delta-type opioid receptor (Mus musculus)
# Sequence (P32300 whole entry): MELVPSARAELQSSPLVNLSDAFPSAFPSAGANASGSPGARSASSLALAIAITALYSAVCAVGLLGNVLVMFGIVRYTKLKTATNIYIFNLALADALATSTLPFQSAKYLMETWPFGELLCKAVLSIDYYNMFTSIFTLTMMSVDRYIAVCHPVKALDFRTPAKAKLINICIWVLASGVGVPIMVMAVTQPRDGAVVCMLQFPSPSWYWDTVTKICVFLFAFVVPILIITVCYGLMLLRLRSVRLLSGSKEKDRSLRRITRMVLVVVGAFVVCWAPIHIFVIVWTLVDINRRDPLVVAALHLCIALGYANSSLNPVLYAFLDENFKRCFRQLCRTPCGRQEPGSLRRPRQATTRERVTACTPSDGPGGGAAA
# Test Summary: Concentration required for 50% inhibition of electrically induced contraction of the mouse vas deferens mediated through delta opioid receptor
Readout Name: pIC50
# pIC50 is unitless: minus log10 of the molar concentration; print number only

Prompt line: Quick one: pIC50 for C[C@H]1NC[C@H](Cc2ccccc2)NC(=O)[C@H](CCN)N(C(=O)[C@@H](N)Cc2ccc(O)cc2)C1=O ?
Response line: 6.60

Prompt line: Given C[C@@H]1NC(=O)[C@H](Cc2ccccc2)NC(=O)[C@@H](CCN)N(C(=O)[C@@H](N)Cc2ccc(O)cc2)C1=O , state its recorded pIC50.
Response line: 7.40

Prompt line: I would be grateful if you could share the reported pIC50 for CC[C@H](C)[C@@H]1NC(=O)[C@H](Cc2ccccc2)NC(=O)[C@@H](CCCCN)N(C(=O)[C@@H](N)Cc2ccc(O)cc2)C1=O .
Response line: 8.20

---

# Test System: Mu-type opioid receptor (Cavia porcellus)
# Sequence (P97266 whole entry): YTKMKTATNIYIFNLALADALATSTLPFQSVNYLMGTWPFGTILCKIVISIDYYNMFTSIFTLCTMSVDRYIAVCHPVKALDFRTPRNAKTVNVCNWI
# Test Summary: Concentration required for 50% inhibition of electrically induced contraction of the guinea pig ileum mediated through mu opioid receptor
Readout Name: pIC50
Give only the number. pIC50 is defined as minus log10 of concentration in molar units.

Prompt line: Reported pIC50 for CC[C@H](C)[C@@H]1NC(=O)[C@H](Cc2ccccc2)NC(=O)[C@@H](CCCCN)N(C(=O)[C@@H](N)Cc2ccc(O)cc2)C1=O : what is it?
Response line: 8.96

Prompt line: Need pIC50, item C[C@H]1NC[C@H](Cc2ccccc2)NC(=O)[C@H](CCN)N(C(=O)[C@@H](N)Cc2ccc(O)cc2)C1=O
Response line: 7.67

Prompt line: Look up pIC50 for this compound: NCCCC[C@@H]1C(=O)N[C@@H](Cc2ccccc2)C(=O)N[C@@H](CC(=O)O)C(=O)N1C(=O)[C@@H](N)Cc1ccc(O)cc1
Response line: 7.10

Prompt line: Can you share its pIC50? I mean this compound: C[C@@H]1NC(=O)[C@H](Cc2ccccc2)NC(=O)[C@@H](CCN)N(C(=O)[C@@H](N)Cc2ccc(O)cc2)C1=O
Response line: 8.46
